- Measurement Target: CD3 epsilon/gamma heterodimer (Homo sapiens, UniProt P07766;P09693 P07766:23-126,P09693:23-116)
- Sequence (P07766 23-126, chain 1 of 2): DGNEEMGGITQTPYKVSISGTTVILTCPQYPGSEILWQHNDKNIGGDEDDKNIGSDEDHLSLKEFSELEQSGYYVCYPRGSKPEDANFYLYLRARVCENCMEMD
- Sequence (P09693 23-116, chain 2 of 2): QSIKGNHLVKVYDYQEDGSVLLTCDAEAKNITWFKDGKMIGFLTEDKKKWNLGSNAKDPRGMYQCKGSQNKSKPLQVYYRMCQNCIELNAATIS
- Run Description: SPR; steady state; kinetic 104 pM (Table 8)
- Details: tags: C-terminal human IgG1 Fc fusion, AcroBiosystems; chain copies: heterodimer 1:1 (inferred); label: biotin; G4 predicted
Reported Endpoint: pKd
Reminder that pKd is minus the log10 of a molar concentration.

Query: Fill blank: measured pKd of the binder GGGTTTGGCATCGGGTCTGGC (ssDNA, 5'-HEG; 3'-3' dT) [CELTIC_core_40t] is ____.
Response: 6.81
